Source listed as paper PMC4822888.

test system: L-type calcium channels; experiment: Blockade of L-type calcium channels
Readout Kind: IC50 (µM)
Give bare numbers, in µM.

Exam item: Form field: reported IC50 of `Nc1[nH]ncc1-c1cc(Cl)ccc1Oc1cc(F)c(S(=O)(=O)Nc2cscn2)cc1Cl`
Marked response: 10

###

biological target: UniProt:P07948
Readout Kind: Ki (µM)
Give bare numbers, in µM.

Exam item: Form field: reported Ki of `Nc1[nH]ncc1-c1cc(Cl)ccc1Oc1cc(F)c(S(=O)(=O)Nc2cscn2)cc1Cl`
Marked response: 7.3

###

molecular target: UniProt:A0A2K5WIF4; test: cell-based
Readout Kind: pIC50
Numbers only, as −log10 of the molar value.

Exam item: Form field: reported pIC50 of `Nc1[nH]ncc1-c1cc(Cl)ccc1Oc1cc(F)c(S(=O)(=O)Nc2cscn2)cc1Cl`
Marked response: 7.92

###

molecular target: UniProtKB A0A8I3P4Z8; test: cell-based
Readout Kind: IC50

Exam item: Form field: reported IC50 of Nc1[nH]ncc1-c1cc(Cl)ccc1Oc1cc(F)c(S(=O)(=O)Nc2cscn2)cc1Cl [PF-05089771]
Marked response: 13 nM

###

Molecular target: KvLQT (Homo sapiens, UniProt P51787)
Sequence (P51787 1-676): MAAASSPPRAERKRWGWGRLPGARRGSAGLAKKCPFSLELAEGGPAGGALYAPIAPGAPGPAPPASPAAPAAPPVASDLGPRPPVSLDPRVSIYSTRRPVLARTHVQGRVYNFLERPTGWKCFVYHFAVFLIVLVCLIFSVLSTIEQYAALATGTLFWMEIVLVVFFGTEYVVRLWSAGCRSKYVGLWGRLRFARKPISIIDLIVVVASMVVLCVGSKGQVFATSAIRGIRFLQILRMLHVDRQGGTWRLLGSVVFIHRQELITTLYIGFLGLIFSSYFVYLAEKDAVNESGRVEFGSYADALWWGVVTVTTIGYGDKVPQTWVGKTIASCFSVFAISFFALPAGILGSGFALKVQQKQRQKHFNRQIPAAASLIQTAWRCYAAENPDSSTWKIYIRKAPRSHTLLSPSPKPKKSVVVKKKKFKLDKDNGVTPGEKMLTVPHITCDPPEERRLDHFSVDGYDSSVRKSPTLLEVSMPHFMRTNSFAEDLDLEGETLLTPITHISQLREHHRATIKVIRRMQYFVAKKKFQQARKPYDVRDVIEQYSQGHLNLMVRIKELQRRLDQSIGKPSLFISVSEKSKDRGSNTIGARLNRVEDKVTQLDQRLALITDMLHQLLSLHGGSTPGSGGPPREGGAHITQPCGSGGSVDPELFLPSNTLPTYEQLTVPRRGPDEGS
Readout Kind: pIC50
Answers are plain numbers, as −log10 of the molar value.

Exam item: Form field: reported pIC50 of Nc1[nH]ncc1-c1cc(Cl)ccc1Oc1cc(F)c(S(=O)(=O)Nc2cscn2)cc1Cl [PF-05089771]
Marked response: 5.00

###

molecular target: Kappa opioid receptor (Homo sapiens, UniProt P41145)
Readout Kind: Ki (nM)
Answers are plain numbers, in nM.

Exam item: Param readout = Ki; param system = Kappa opioid receptor (Homo sapiens, UniProt P41145); param query = `Nc1[nH]ncc1-c1cc(Cl)ccc1Oc1cc(F)c(S(=O)(=O)Nc2cscn2)cc1Cl` ; response: value
Marked response: 390
